Test system: H2030
Experiment: Non Small Cell Lung Cancer proliferation assay (Alamar Blue reduction), H2030
Type: cell-based, human
Conditions: Homo sapiens, NCI-H2030, dose response 10 M to 5 nM; IC50; read-out: Dose Response (uM) H2030
Readout name: IC50 (µM)
Express it in µM; write the number only.

Data point: O=c1c(Cl)c(Cl)cnn1Cc1ccccc1 ; IC50 = 6.83

GET /value?item= CCCCc1cccc(-n2ncc(Cl)c(Cl)c2=O)c1 &field=IC50 returns 2.75

Entry under test: COc1cccc(-n2ncc(Br)c(Br)c2=O)c1 . Its IC50 was 0.57

Reported IC50 ( Cc1ccc(-n2ncc(Cl)c(Cl)c2=O)cc1 ) = 0.65

The measured IC50 associated with NCCCOc1cccc(-n2ncc(Br)c(Br)c2=O)c1 reads 0.67

Looking up O=c1c(Cl)c(Cl)cnn1-c1ccc(Cl)cc1Cl , I see its IC50 listed as 1.27

# molecule O=c1c(Cl)c(Cl)cnn1-c1ccc(C(F)(F)F)cc1 ; its IC50 = 1.09

For reference, reported IC50 for Cc1cc(-n2ncc(Cl)c(Cl)c2=O)ccc1Br stands at 0.88

IC50 in this record for COc1nn(-c2cccc(C)c2)c(=O)c(Cl)c1Cl : 1.26
